Biological target: rM1 (Rattus norvegicus, UniProt P08482)
Construct: host or cells: CHO-K1
Sequence (P08482 1-460): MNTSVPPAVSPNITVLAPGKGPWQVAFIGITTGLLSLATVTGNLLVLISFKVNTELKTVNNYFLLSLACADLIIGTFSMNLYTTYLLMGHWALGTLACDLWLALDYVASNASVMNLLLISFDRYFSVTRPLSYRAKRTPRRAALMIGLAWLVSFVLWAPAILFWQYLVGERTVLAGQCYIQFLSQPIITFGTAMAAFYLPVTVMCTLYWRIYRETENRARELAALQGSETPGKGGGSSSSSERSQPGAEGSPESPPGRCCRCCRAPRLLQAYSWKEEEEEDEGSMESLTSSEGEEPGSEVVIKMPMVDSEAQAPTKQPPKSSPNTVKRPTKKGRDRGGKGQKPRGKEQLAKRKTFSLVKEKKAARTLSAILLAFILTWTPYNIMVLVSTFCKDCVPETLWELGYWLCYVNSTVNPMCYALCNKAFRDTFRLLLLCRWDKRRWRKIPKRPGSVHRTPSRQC
Assay: Calcium mobilization assay in CHO-K1 cells stably expressing rat M1 (low throughput, Flexstation II)
Format: cell-based
Conditions: RM1, read-out: Efficacy (% Max ACh)
Please provide measured Emax for the entries that follow.
Record the value in %, omitting the unit from your answer.

Item under review: CCOC(=O)N1C2CCC1CC(N1CCC[C@@H](NC(=O)c3ccccc3Cl)C1)C2 (stereo partly shown) . Reported Emax? 94

Item under review: CCOC(=O)N1C2CCC1CC(N1CCC[C@@H](NC(=O)c3ccc(F)cc3)C1)C2 (stereo partly shown) . Reported Emax? 95

Fill blank: measured Emax of the compound CCOC(=O)N1C2CCC1CC(N1CCC[C@@H](NC(=O)c3cc(Cl)ccc3F)C1)C2 (stereo partly shown) is ____. 65

Field request: Emax | item: CCOC(=O)N1C2CCC1CC(N1CCC[C@@H](NC(=O)c3ccc(F)cc3F)C1)C2 (stereo partly shown) 89

Item CCOC(=O)N1C2CCC1CC(N1CCC[C@@H](NC(=O)c3cccc(OC)c3)C1)C2 (stereo partly shown) has what recorded Emax? 94

Would you mind telling me what Emax value was observed for CCOC(=O)N1C2CCC1CC(N1CCC[C@@H](NC(=O)OC(C)(C)C)C1)C2 (stereo partly shown) ? 74

Form field: reported Emax of CCOC(=O)N1C2CCC1CC(N1CCC[C@@H](NC(=O)c3cccc(C)c3)C1)C2 (stereo partly shown) 94
